The measurements presented in this section are drawn from the supplement of paper PMC12042874.

Listing of recorded amyloid nucleation score by entry.
# Method notes: amyloid nucleation score (Sup35N fusion, yeast selection) (log enrichment); library NNK2; higher = more nucleation; inactive = no reads after selection;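 also: zero at mode of non-aggregating sequences after 7 days selection at 30°C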
# output: bare number, no unit

Field: example entries. Status: answers known.
Entry sequence: LFRQEAMIPL
amyloid nucleation score: 0.594

Entry sequence: LNRLCRRVCRSINDTIAIRE
amyloid nucleation score: -0.157

Entry sequence: IAKGPGALYRSKMRWSGFVL
amyloid nucleation score: -0.817

Entry sequence: NKTTFSICDAYDGYREWTDN
amyloid nucleation score: -1.17

Entry sequence: AQDWVARIRWSVRQFYGARC
amyloid nucleation score: 2.18

Q. Answer with the recorded amyloid nucleation score for the sequence listed here: LLFPLGISHAYMGRFFFRMV
A. -0.266

Q. In one line, give reported amyloid nucleation score of the entry WVAFANFVHGLMTLGHWGSR .
A. 1.28

Q. Determine from records and report amyloid nucleation score for YMADSPLELDSSMTDYLCPV
A. 4.18

Q. Respond only with amyloid nucleation score recorded for SAVWRHVNDLLLSR
A. 1.11

Q. State its amyloid nucleation score for this sequence: VIRSLSFLSYIWVDKGVGVV
A. -0.89

Q. Tell me measured amyloid nucleation score for VFASMFILFYV please.
A. 3.46

Q. Give the measured amyloid nucleation score for EVPCWMTRSSMECNVDYWEG
A. 0.797

Q. Annotate the sequence VYSPAIFTNVFSYVSCEEER with its measured amyloid nucleation score.
A. 6.56

Q. Output amyloid nucleation score of VGINLSSATGMFEGKIQDNA
A. -0.757

Q. Provide only the value of recorded amyloid nucleation score for WDLLLCNTKFFEIRIKADTL
A. 3.94

Q. Fill in reported amyloid nucleation score for this entry: AKRDMAKKYLSGYHGVLWYV
A. 0.077

Q. Give the measured amyloid nucleation score for WLICQSIRLLAKNFLLSDRV
A. 0.019

Q. Report measured amyloid nucleation score; entry is NSTKTRLSSDTTLDFLEATR
A. -0.299

Q. Assign amyloid nucleation score to the following record: DRFVWVADTWWSRRNNAAFG
A. 4.16

Q. Quick one: give measured amyloid nucleation score for KCFKVRTDLWRSC
A. 1.38

Q. Input VYRYFNLQVISFWMMARHTM , output reported amyloid nucleation score.
A. -1.32

---

# Method notes: amyloid nucleation score (Sup35N fusion, yeast selection) (log enrichment); library NNK2; higher = more nucleation; inactive = no reads after selection
Label f if amyloid nucleation score falls below 0.1; label t in every other case.

Substance: LAYIARR
Assigned class: f

Substance: SRIFVRYTLAKLVDFSCPES
Assigned class: t

Next item in the queue.
Q. API: above_or_equal(metric=amyloid nucleation score, cutoff=0.1) for item KMEMRGCRMVTNMYC
A. f

---

# Method notes: amyloid nucleation score (Sup35N fusion, yeast selection) (log enrichment); library NNK2; higher = more nucleation; inactive = no reads after selection
Quantity measured: amyloid nucleation score
Just the number, please.

Substance: CNWLYF
amyloid nucleation score: 0.395

Q. Input LRLSHMFLVNMSWGNVINLC , output reported amyloid nucleation score.
A. 3.28

Q. Identify amyloid nucleation score associated with the substance YGVFYCSMPYCTSWGIHCVL
A. 7.19

Q. Entry FVYGQWPNRSRAISSTSMFK needs its amyloid nucleation score filled in; supply it.
A. -0.723
